All figures here come from PubChem BioAssay (NCATS).

- experimental system: Ubiquitin carboxyl-terminal hydrolase 1 (Homo sapiens) (UniProt O94782)
- Sequence (O94782 whole entry, looked up): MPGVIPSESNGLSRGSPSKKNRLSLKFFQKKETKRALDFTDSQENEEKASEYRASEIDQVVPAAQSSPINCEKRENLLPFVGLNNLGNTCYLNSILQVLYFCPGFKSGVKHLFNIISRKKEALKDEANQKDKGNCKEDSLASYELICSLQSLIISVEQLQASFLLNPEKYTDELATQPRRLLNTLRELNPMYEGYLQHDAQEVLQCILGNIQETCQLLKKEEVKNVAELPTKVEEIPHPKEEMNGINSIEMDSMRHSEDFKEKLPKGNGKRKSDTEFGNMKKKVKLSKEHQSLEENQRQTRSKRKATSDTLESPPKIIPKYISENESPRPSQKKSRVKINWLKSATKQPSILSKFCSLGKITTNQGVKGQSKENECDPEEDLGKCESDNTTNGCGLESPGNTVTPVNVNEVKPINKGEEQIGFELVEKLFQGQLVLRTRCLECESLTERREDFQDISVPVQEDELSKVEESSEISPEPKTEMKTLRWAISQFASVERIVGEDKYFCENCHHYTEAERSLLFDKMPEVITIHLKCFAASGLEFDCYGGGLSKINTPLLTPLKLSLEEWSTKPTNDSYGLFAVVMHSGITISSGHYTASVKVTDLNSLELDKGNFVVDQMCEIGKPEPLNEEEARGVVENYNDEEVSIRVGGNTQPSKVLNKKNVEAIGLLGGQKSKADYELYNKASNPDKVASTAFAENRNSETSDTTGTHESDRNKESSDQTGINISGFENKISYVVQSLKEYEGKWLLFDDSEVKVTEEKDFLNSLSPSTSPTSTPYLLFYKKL
- assay explanation: Inhibitors of USP1/UAF1: Pilot qHTS (AID 504865); note: nearly all actives have a fitted effect of over 35% in size
- condition: purified USP1/UAF1, Ub-rhodamine cleavage fluorescence; series mostly up to 114 µM
Inconclusive results are not listed. Calls of active or inactive are those of the source. Calls come from the whole dose curve; as a rule, active = well fitted inhibition curve with a large enough effect; inconclusive = small, poorly fitted or top-dose-only effect; inactive = flat fitted curve, though single readings scatter.
Form entry, call: pick from TRUE = active, FALSE = inactive

| molecule | discrete label |
| --- | --- |
| CC1(C)S[C@@H]2[C@H](N)C(=O)N2C1C(=O)O (some centres undefined) | FALSE |
| CSc1nc(NC(C)C)nc(NC(C)C)n1 | FALSE |
| Oc1cc2c(cc1O)[C@H]1c3ccccc3CN[C@H]1CC2 | FALSE |
| CC(=O)O[C@H]1C[C@H]2CC[C@@H]3[C@H]4C[C@@H]([N+]5(C)CCCCC5)[C@@H](OC(C)=O)[C@]4(C)CC[C@@H]3[C@@]2(C)C[C@@H]1[N+]1(C)CCCCC1 | FALSE |
| CCCCCC[C@H]1C(=O)O[C@H](C)[C@H](NC(=O)c2cccc(NC=O)c2O)C(=O)O[C@@H](C)[C@H]1OC(=O)CC(C)C | TRUE |

Ask: I'd appreciate the recorded outcome for CCCCCC(O)C1C(=O)OC(C)C(O)\C=C/C=C\C=C/C=C\C=C(\C)C(O)C(O)C(O)CC(O)CC(O)CC(O)CC(O)CC1O (centres undefined) from this test.
Reply: FALSE

Ask: Next molecule up: CC(=O)Oc1ccc2c3c1OC1[C@@H](OC(C)=O)C=C[C@H]4[C@H](C2)N(C)CC[C@]314 (some centres undefined)
Reply: FALSE

---

- assay explanation: qHTS assay for environmental chemicals that activate the Aryl hydrocarbon Receptor (AhR) signaling pathway (AID 651777); note: % of control where 0% means no effect; nearly all actives have a fitted effect of over 15% in size
- condition: 1A2-DRE human hepatoma cells, luciferase, 24 h; active compounds read high
Records with an inconclusive call do not appear. Active and inactive are the calls of the source. The call rests on the fitted dose curve; in most records, active means well fitted activation curve with a large enough effect; inconclusive means small, poorly fitted or top-dose-only effect; inactive means flat fitted curve, though single readings scatter.
measurement label: activation

| molecule | activation |
| --- | --- |
| Cc1cc(Cl)ccc1N=CN(C)C | 1.22% (inactive) |
| CC(C)(C)c1ccc(CSc2cnn(C(C)(C)C)c(=O)c2Cl)cc1 | -3.11% (inactive) |
| CCC(CC)Nc1c([N+](=O)[O-])cc(C)c(C)c1[N+](=O)[O-] | 4.64% (inactive) |
| CC(C)[C@H](C(=O)O[C@H](C#N)c1cccc(Oc2ccccc2)c1)c1ccc(Cl)cc1 | 0.849% (inactive) |
| COc1ccc(C(O)(c2cncnc2)C2CC2)cc1 (stereo not given) | -0.591% (inactive) |

For every item in the list below, what is its measured activation?
1. CC(C)(C)C(=O)[C@@H](Oc1ccc(Cl)cc1)n1cncn1
2. O=C(O)c1c(Cl)ccc2cc(Cl)cnc12
3. CCC[CH2][Sn]([CH2]CCC)[CH2]CCC

Reply:
5.12% (inactive)
2.06% (inactive)
-0.508% (inactive)

Dear colleague, could you send me activation for each of the items below? Thanks.
1. CNC(=O)O/N=C(\C)SC
2. COc1nc(C)nc(NC(=O)NS(=O)(=O)c2ccccc2CCC(F)(F)F)n1
3. CCNS(=O)(=O)C(F)(F)C(F)(F)C(F)(F)C(F)(F)C(F)(F)C(F)(F)C(F)(F)C(F)(F)F
4. CC(C)[C@@H](Nc1ccc(C(F)(F)F)cc1Cl)C(=O)OC(C#N)c1cccc(Oc2ccccc2)c1 (stereo not given in full)

Reply:
-1.88% (inactive)
0.656% (inactive)
1.24% (inactive)
0.736% (inactive)
